I'd appreciate it if you could supply cytotoxicity at 10 µM values for the items below.
PROCEDURE SUMMARY: Toxicity liver stage against HepG2, at 10uM
Assay type: cell-based
Set-up: test concentration 10 uM, cell line HepG2-A16-CD81EGFP
TEST CONTEXT: human, HepG2-A16-CD81EGFP cells; read-out: INHIBITION
# value in %; strip the unit string

Notebook: "CCc1cc(C(=O)N2CCC(O)(Cn3ccc4ccncc43)CC2)no1" , cytotoxicity at 10 µM read as -18.7

Notebook: "COCC(=O)N1CCC2(CC1)COc1ccccc1S(=O)(=O)N(C)C2" , cytotoxicity at 10 µM read as 9.7

Given item "c1coc(CN2CC[C@@H]3O[C@@H](COCC4CCOCC4)CC[C@@H]32)c1" , the value recorded as its cytotoxicity at 10 µM is -142

What the record says about "CC(C)CN(C(=O)COc1ccc(C(N)=O)cc1)C1CCN(C)CC1" : cytotoxicity at 10 µM is -3.24

The measured cytotoxicity at 10 µM associated with "CN1CCCc2c1nc1c(c2N)CCC1" reads 10.2

cytotoxicity at 10 µM measured on O=C(CC1CNCCO1)N1CCC(c2cc(N3CCCC3)ncn2)CC1 (configuration not stated) = 5.81

Reported cytotoxicity at 10 µM of Cc1ncsc1CN1Cc2cnn(C)c2C(COCC2CC2)C1 (configuration not stated) : 3.04

The recorded cytotoxicity at 10 µM for "COCCN(c1ccncc1)S(=O)(=O)c1cc(C)cc(F)c1" is 7.83

cytotoxicity at 10 µM in this record for "CCc1nc(CN(C)C(=O)c2cc(CN(CC)CC)c(CC)o2)no1" : 0.9

So for OCCN1CCN(CC(O)c2ccc(OC(F)(F)F)cc2)CC1 (configuration not stated) , the logged cytotoxicity at 10 µM turned out to be -20.8

cytotoxicity at 10 µM reading for "O=C1CCC(=O)N1CCN1CCC(=Cc2ccccc2)CC1" : 8.82

Lab book: cytotoxicity at 10 µM of "CCOc1ccc(CNCc2ccc(C(=O)NC)cc2)cc1OCC" noted as -7.06
